- Test system: T-47D breast
- assay-procedure: NCI tumour cell line growth inhibition, 48 h; in the data active means GI50 below about 0.43 µM; inactive means the rest
Pick one and only one: active, inactive

molecule: COc1ccc2c(CN3CCC[C@H]3C(=O)O)cc3cc4c(cc3c2c1)OCO4
target-entity: T-47D breast
class: inactive
--
molecule: C=C[C@H]1CCC/C=C/[C@@H]2C[C@H](O)C[C@H]2[C@H](O)/C=C/C(=O)O1
target-entity: T-47D breast
class: active
--
molecule: Nc1cc(-c2cccc(OC(F)(F)F)c2)nc2ccc(N3CCCC3)cc12
target-entity: T-47D breast
class: inactive
--
molecule: COc1ccc2c(c1)OC1=C(C(=O)OC1)C2c1cc(OC)c(OC)c(OC)c1 (centres undefined)
target-entity: T-47D breast
class: inactive
--
molecule: c1cn2cc(-c3ccc4ncn(C5CCCCC5)c4c3)nc(-c3ccc4c(c3)ncn4C3CCCCC3)c2n1
target-entity: T-47D breast
class: inactive
--
molecule: O=C(Nc1cc[c]([Sb](=[O])([OH])[OH])cc1)c1ccccc1
target-entity: T-47D breast
class: inactive

Prompt line: Status in this test for O=CN1N=C(c2ccc(Cl)cc2)CC1c1cccc(Nc2ccnc3cc(Cl)ccc23)c1 (centres undefined) ?
Response line: inactive

Prompt line: Status in this test for CCCN1CCN(c2ccc3nc(-c4ccc5nc(-c6cc(OC)ccc6OC)[nH]c5c4)[nH]c3c2)CC1 ?
Response line: inactive

Prompt line: Status in this test for CCCCCCCCCCCCC(O)C1CCC(C(O)CCCCCCC(O)CCCCCCCC2=CC(C)OC2=O)O1 (centres undefined) ?
Response line: inactive

---

Kindly supply the reported TGI values for the records listed here.
- Test system: NCI-H522 lung
- assay-procedure: NCI tumour cell line growth inhibition, 48 h

compound: O=c1[nH]c(=S)[nH]n1C(=S)n1[nH]c(=S)[nH]c1=O
TGI: > 100 µM
--
compound: O=C1c2cc([N+](=O)[O-])ccc2-c2cccc(F)c21
TGI: > 100 µM
--
compound: COc1ccc(/C=C2\CCCCCC2=O)cc1
TGI: > 100 µM
--
compound: C(=NCc1ccccc1)c1ccccc1-c1ccccc1C=NCc1ccccc1
TGI: > 10 µM

Report TGI for each item below.
1. Cc1cc(N2CCN(c3ccnc4cc(Cl)ccc34)CC2)nc(NC2CCCCC2)n1
2. Cc1cc(NCCCCCCCCCC[n+]2c(C)cc(N)c3ccccc32)c2ccccc2n1
3. COC(=O)C(=O)C(C#N)c1ccc(CC#N)cc1 (stereo unspecified)
4. O=C(O)c1ccccc1C(=O)Nn1cnnc1
5. Cc1ccc(NC(=O)CC(=O)n2nc(-c3ccccc3)c(N=Nc3ccccc3Cl)c2-c2ccccc2)cc1

Response line:
3.8 µM
> 100 µM
> 100 µM
> 100 µM
> 100 µM

Report TGI for each item below.
1. Cn1c(NS(=O)(=O)c2ccccc2)nc2ccccc21
2. O=c1[nH]nc(Cc2ccccc2)n1/N=C/c1ccccc1Cl

Response line:
> 100 µM
> 100 µM

---

- Test system: NCI-H23 lung
- assay-procedure: NCI tumour cell line growth inhibition, 48 h
measurement-name: TGI

molecule: CCOP(=O)(OCC)c1ccc(=O)[nH]c1-c1cccs1
TGI: > 100 µM

molecule: Cc1nn(-c2ccccc2)c2[nH]c(=S)cnc12
TGI: > 100 µM

molecule: COC(=O)c1ccc(N=NN(C)COc2ccc([N+](=O)[O-])cc2)cc1
TGI: > 100 µM

Report TGI for each item below.
1. CCCN1CCN(c2ccc3nc(-c4ccc5nc(-c6cc(OC)ccc6OC)[nH]c5c4)[nH]c3c2)CC1
2. CCCCCC(CO)C(O)(C(F)(F)F)C(F)(F)F (stereo not given)
3. NC(=S)N/N=C(\C(=O)Nc1cccc([N+](=O)[O-])c1)c1nc2ccc([N+](=O)[O-])cc2[nH]c1=O
4. c1ccc2c(c1)-c1ccccc1C2N1CC2CCC(CC2)C1
5. [N-]=[NH+]CC(=O)OC(COCc1ccccc1)COCc1ccccc1

Response line:
["3.85 µM", "> 10 µM", "> 100 µM", "47.5 µM", "> 100 µM"]

Report TGI for each item below.
1. NC1CCCCC1N.O=S(=O)([O-])CCCN1CCOCC1.O=S(=O)([O-])CCCN1CCOCC1.[Pt+4]
2. Cc1cc(NCCCCCCCCCC[n+]2c(C)cc(N)c3ccccc32)c2ccccc2n1

Response line:
> 92.2 µM
6.54 µM

Report TGI for each item below.
1. O=C(CC12CC3CC(CC(C3)C1)C2)NCCOCCOCCOCCNC(=O)c1cc2c(o1)C(=O)c1ccccc1C2=O
2. CCCCCCCCCCCCC(O)C1CCC(C(O)CCCCCCC(O)CCCCCCCC2=CC(C)OC2=O)O1 (stereo not given)
3. COC(=O)C12C3C4C5C3(C#N)C1C5(C(=O)OC)C42C(=O)N(C(C)C)C(C)C (stereo not given)
4. Cc1ccc(NC(=O)CCC/C(CC(=O)c2ccc(Br)cc2)=N/NC(=O)CC#N)cc1

Response line:
1.09 µM
> 100 µM
> 100 µM
> 100 µM

Prompt line: Entry CN(C(=O)Cc1ccc(Cl)c(Cl)c1)[C@@H]1CCCC[C@H]1[N+]1(C)CC=CC1 : reported TGI = ?
Response line: > 100 µM

---

- Tested on: SK-MEL-5 melanoma
- assay-procedure: NCI tumour cell line growth inhibition, 48 h; in the data active = GI50 below about 0.43 µM; inactive = the rest
Pick one and only one: active, inactive

Please review the entries below; each comes with its answer.
compound: COc1cc2cc(C(=O)Nc3cc(N)c4ccccc4c3CCCl)[nH]c2c(OC)c1OC
class: active

compound: COc1ccc(-c2nc3ncccn3c2/C=C/C(=O)c2cc(OC)c(OC)c(OC)c2)cc1
class: inactive

compound: CCOc1ccc(Nc2nc(-c3ccc4c(c3)NC(=O)CO4)cs2)cc1
class: inactive

compound: c1cn2cc(-c3ccc4ncn(C5CCCCC5)c4c3)nc(-c3ccc4c(c3)ncn4C3CCCCC3)c2n1
class: inactive

Okay, now this compound:
Prompt line: Status in this test for CC[Si](CC)(CC)OC[C@]1([C@@H]2COC(C)(C)O2)CC=CC(=O)O1 ?
Response line: inactive

---

- System: SR leukemia
- assay-procedure: NCI tumour cell line growth inhibition, 48 h
Kindly supply the reported TGI values for the records listed here.

Recorded results for 5 molecules are shown here.
molecule: CCCn1c(SCC)c2cc3cc4ccccc4cc3cc2c1-c1nc(F)nc(F)n1
TGI: > 100 µM

molecule: CCCCCCCCC/C=C1\CC(CO)(COC(=O)C2CCCCC2)OC1=O (stereo not drawn)
TGI: > 100 µM

molecule: C=C1CC(C)(COc2ccc3ccc(=O)oc3c2)OC1=O (stereo not drawn)
TGI: > 20.7 µM

molecule: COC(=O)C(=O)C(C#N)c1ccc(CC#N)cc1 (stereo not drawn)
TGI: > 100 µM

molecule: CCOC(=O)NC(=O)c1cn(CCCOC(=O)CCCCCCCCCCC(=O)OCCCn2cc(C(=O)NC(=O)OCC)c(=O)n(C)c2=O)c(=O)n(C)c1=O
TGI: > 100 µM

Report TGI for each item below.
1. CCSC1=N/C(=C\c2ccco2)C(Cl)=N1
2. C=C(Br)CN(C(C)=O)C1CCCCC1
3. COc1cc(C=Nc2ccc(C(C)C)cc2)cc(OC)c1OC

Response line:
1. > 100 µM
2. > 100 µM
3. > 100 µM

---

- System: SF-539 CNS
- assay-procedure: NCI tumour cell line growth inhibition, 48 h
measurement-name: TGI

Recorded results for 10 molecules are shown here.
molecule: CCOC(=O)C1=C(Nc2ccc(Cl)cc2Cl)OC/C1=N\NS(=O)(=O)c1ccc(C)cc1
TGI: > 100 µM

molecule: N#Cc1c(Cl)/c(=C/O)c(=O)n2c1nc1ccccc12
TGI: > 100 µM

molecule: COC(=O)c1ccc(N=NN(C)COc2ccc([N+](=O)[O-])cc2)cc1
TGI: > 100 µM

molecule: Cc1cc(I)cc(CN(C)CCN2CCCC2)c1O
TGI: 53.3 µM

molecule: O=C(O)C1Cc2c([nH]c3ccccc23)C=N1 (stereo not drawn)
TGI: > 100 µM

molecule: CC(=O)N(CCc1ccccc1)C(C#N)c1ccc(OCCCCCCCCCCOc2ccc(C(C#N)N(CCc3ccccc3)C(C)=O)cc2)cc1 (stereo not drawn)
TGI: > 100 µM

molecule: COc1cccc(-c2nc3sccn3c2-c2ccnc(NCCNS(=O)(=O)c3ccccc3)c2)c1
TGI: > 100 µM

molecule: CCOC(=O)[C@@H]1ON2O[C@H](OC3CCCC3(c3ccccc3)c3ccccc3)C[C@H]3OC(=O)[C@@H]1C32 (stereo partly drawn)
TGI: > 100 µM

molecule: O=[N+]([O-])c1ccc2[nH]ncc2c1Cl
TGI: > 100 µM

molecule: Cc1occc1C(=S)Nc1ccc(Cl)c(/C=N/OC(C)C)c1
TGI: 32.9 µM

Report TGI for each item below.
1. NC1=NN(c2ccccc2)C2(O)c3ccncc3C3=NN(c4ccccc4)C(=O)C132 (stereo not drawn)
2. COc1ccc2c(c1)N=C1CSC(c3cccc(Br)c3)N1C2 (stereo not drawn)
3. CCN(CC)CCNC(=O)c1nn(C)c(=S)[nH]c1=S
4. OC(C/C(=N\N1CCCCC1)c1cccs1)(C(F)(F)F)C(F)(F)F

Response line:
1: > 100 µM; 2: 41.4 µM; 3: > 100 µM; 4: > 10 µM
